Listed below: residual activity values for each entry.
System tested: MAPK11 (human) (UniProt Q15759)
Sequence (Q15759 whole entry, looked up): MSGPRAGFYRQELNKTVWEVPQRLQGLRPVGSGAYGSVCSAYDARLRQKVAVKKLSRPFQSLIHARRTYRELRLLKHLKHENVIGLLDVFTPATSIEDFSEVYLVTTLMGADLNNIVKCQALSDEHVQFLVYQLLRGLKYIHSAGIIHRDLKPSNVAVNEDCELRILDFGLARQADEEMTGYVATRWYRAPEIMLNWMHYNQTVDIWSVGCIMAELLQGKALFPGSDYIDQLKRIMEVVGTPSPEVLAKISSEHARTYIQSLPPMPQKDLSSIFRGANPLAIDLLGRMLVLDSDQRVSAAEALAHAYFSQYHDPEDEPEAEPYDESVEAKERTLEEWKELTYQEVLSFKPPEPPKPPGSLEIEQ
Assay notes: radiometric filter-binding kinase assay, Kinase HotSpot
Measurement context: compound 0.5 µM; ATP 10 µM
Experimental endpoint: residual activity (%)

INSERT INTO assay_data (smiles_repr, experimental_endpoint, test_result) VALUES
  ('COc1ccc2c(c1)/C(=C/c1cnc[nH]1)C(O)=N2', 'residual activity', 103),
  ('CC(C)(C)c1cc(C=C(C#N)C#N)cc(Br)c1O', 'residual activity', 100),
  ('COc1cc2ncnc(Nc3ccc(Oc4ccccc4)cc3)c2cc1OC', 'residual activity', 105),
  ('COc1ccc(Cl)cc1NC(=O)Nc1cc(C)nc2ccccc12', 'residual activity', 92),
  ('COc1ccc2c(c1)c(C1=C(c3c[nH]c4ccccc34)C(=O)NC1=O)cn2CCCN(C)C', 'residual activity', 96.7),
  ('Ic1cccc(CSc2nnc(-c3ccncc3)o2)c1', 'residual activity', 96.9),
  ('Fc1ccc(-c2nc3n(c2-c2ccncc2)CCS3)cc1', 'residual activity', 97.2),
  ('Cc1cccc(-c2nc(C(C)(C)C)[nH]c2-c2ccc3c(c2)OCO3)n1', 'residual activity', 93),
  ('NC(=O)c1cccc(-c2cc(Nc3ccc(OC(F)(F)F)cc3)ncn2)c1', 'residual activity', 105),
  ('COc1ccc(S(=O)(=O)N(CCO)c2ccccc2CN(C)C/C=C/c2ccc(Cl)cc2)cc1', 'residual activity', 103),
  ('O=C1C(Cl)=C(N2C(=O)CCC2=O)C(=O)c2ccccc21', 'residual activity', 105),
  ('O=C1NC(=O)c2c1c1c3ccccc3[nH]c1n1cncc21', 'residual activity', 94.5),
  ('CO[C@@H]1[C@H](N(C)C(=O)c2ccccc2)C[C@H]2O[C@]1(C)n1c3ccccc3c3c4c(c5c6ccccc6n2c5c31)C(=O)NC4', 'residual activity', 97.6),
  ('N#C/C(=C\c1ccc(O)c(O)c1)C(=O)NCc1ccccc1', 'residual activity', 98.7),
  ('CN(C)S(=O)(=O)c1ccc2c(c1)/C(=C/c1cc3c([nH]1)CCCC3)C(=O)N2', 'residual activity', 108),
  ('O=C(c1cc2cc(O)ccc2[nH]1)c1cc2cc(O)ccc2[nH]1', 'residual activity', 95.7),
  ('C[C@@H]1CCN(C(=O)CC#N)C[C@@H]1N(C)c1ncnc2[nH]ccc12', 'residual activity', 103),
  ('COc1ccc(C(=O)Nc2sc3c(c2C(N)=O)CCCC3)cc1OC', 'residual activity', 104),
  ('CCCCc1c(-c2ccc(OC)cc2)[nH]c2nccnc12', 'residual activity', 100),
  ('Cc1nc(-c2ccccc2)c(-c2ccncc2)o1', 'residual activity', 101),
  ('COc1cc2ncnc(Nc3ccc(OCc4ccccc4)cc3)c2cc1OC', 'residual activity', 96.9),
  ('N#Cc1c[nH]c2c[nH]/c(=N\Cc3cccnc3)cc2/c1=N\c1ccc(F)c(Cl)c1', 'residual activity', 102);

Cited source: the kinase profiling compilation of Christmann-Franck et al. (2016)
